Entry source: patent US9988381B2

System: EBC-1 cell
Test: Test III: growth inhibition of non-small cell carcinoma EBC-1 cell (SRB)
Type: cell-based
Conditions: Homo sapiens, EBC-1, 72 h, read-out: Cell proliferation inhibition rate at 1 μM (%)
inhibition at 1 µM values, listed per item

[
  {
    "smi": "COc1ccc(-c2cnc3cnn(S(=O)(=O)c4cnc5ccc(O)cn45)c3c2)cc1",
    "inhibition at 1 µM": "87%"
  }
]

Reported inhibition at 1 µM of COc1ccc2ncc(S(=O)(=O)n3ncc4ncc(-c5ccc(N6CCOCC6)cc5)cc43)n2c1 : 92.7%

Entry COc1ccc2ncc(S(=O)(=O)n3ncc4ncc(-c5cnn(C)c5)cc43)n2c1 , inhibition at 1 µM reported as 92.5%

Sample Cn1cc(-c2ccc3ncc(S(=O)(=O)n4ncc5ncc(-c6cnn(C7CCNCC7)c6)cc54)n3c2)cn1 ; inhibition at 1 µM observed: 92%

Memo: Cn1cc(-c2cnc3cnn(S(=O)(=O)c4cnc5ccc(-c6cn[nH]c6)cn45)c3c2)cn1 , reported inhibition at 1 µM: 91.5%

* * *

Target: c-Met kinase domain recombinant protein (Homo sapiens)
Construct: 50 μL diluted solution of c-Met kinase domain recombinant protein in reaction buffer was added to initiate the reaction
Assay: biochemical
Settings: read-out: Inhibition rate at 10 μM (%)
# maps each entry to its inhibition at 10 µM

Reference set (3 entries):
[
  {
    "smi": "COc1ccc(-c2ccc3ncc(S(=O)(=O)n4ncc5ncc(-c6cnn(C)c6)cc54)n3c2)cc1OC",
    "measured-target": "c-Met kinase domain recombinant protein (Homo sapiens)",
    "inhibition at 10 µM": "> 71.8%"
  },
  {
    "smi": "CN1CCN(C(=O)c2ccc(-c3ccc4ncc(S(=O)(=O)n5ncc6ncc(-c7cnn(C)c7)cc65)n4c3)cc2)CC1",
    "measured-target": "c-Met kinase domain recombinant protein (Homo sapiens)",
    "inhibition at 10 µM": "> 75.3%"
  },
  {
    "smi": "Cn1cc(-c2cnc3cnn(S(=O)(=O)c4cnc5ccc(-c6cccc(C#N)c6)cn45)c3c2)cn1",
    "measured-target": "c-Met kinase domain recombinant protein (Homo sapiens)",
    "inhibition at 10 µM": "> 60.4%"
  }
]

The value of inhibition at 10 µM recorded for Cn1cc(-c2cnc3cnn(S(=O)(=O)c4cnc5ccc(-c6cc(F)c(F)c(F)c6)cn45)c3c2)cn1 when tested on c-Met kinase domain recombinant protein (Homo sapiens) reads > 70.2%

* * *

Biological target: c-Met kinase domain recombinant protein (Homo sapiens, UniProt P08581)
Construct: 50 μL diluted solution of c-Met kinase domain recombinant protein in reaction buffer was added to initiate the reaction
Sequence (P08581 1078-1345 limits assumed): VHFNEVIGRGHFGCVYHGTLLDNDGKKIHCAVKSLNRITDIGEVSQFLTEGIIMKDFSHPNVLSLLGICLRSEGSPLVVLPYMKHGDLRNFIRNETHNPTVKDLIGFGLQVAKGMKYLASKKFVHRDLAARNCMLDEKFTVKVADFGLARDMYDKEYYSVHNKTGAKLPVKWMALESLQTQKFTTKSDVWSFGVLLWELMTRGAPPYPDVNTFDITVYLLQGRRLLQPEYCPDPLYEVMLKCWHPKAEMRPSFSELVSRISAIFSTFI
Test: biochemical
Details: read-out: Average inhibition rate at 10 μM (%)
Protocol: Enzymatic reaction substrate Poly(Glu,Tyr)4:1 was diluted to 20 μg/mL in potassium ion free PBS (10 mM sodium phosphate buffer, 150 mM NaCl, pH7.2-7.4), microplate was coated with this solution at 125 μL per well, and reacted at 37° C. for 12-16 hours. […] The plate was washed three times with T-PBS. […] Reaction was terminated by adding 50 μL per well of 2M H2SO4, the plate was read at 490 nm using a SPECTRA MAX 190 microplate reader with tunable wavelength. […]
measured-quantity: inhibition at 10 µM (%)
Field: numeric (%). Do not append units.

Worked examples follow.
[
  {
    "smi": "O=S(=O)(c1cnc2ccccn12)n1ncc2ncc(-c3cnn(C4CCN(C5CCCC5)CC4)c3)cc21",
    "readout-unit": "%",
    "inhibition at 10 µM": 62.6
  },
  {
    "smi": "O=S(=O)(c1cnc2ccccn12)n1ncc2ncc(-c3cnn(C4CCNCC4)c3)cc21",
    "readout-unit": "%",
    "inhibition at 10 µM": 89.6
  },
  {
    "smi": "CC(=O)c1ccc(-c2cnc3cnn(S(=O)(=O)c4cnc5ccccn45)c3c2)cc1",
    "readout-unit": "%",
    "inhibition at 10 µM": 66
  },
  {
    "smi": "O=S(=O)(c1cnc2ccccn12)n1ncc2ncc(-c3ccc(CN4CCOCC4)cc3)cc21",
    "readout-unit": "%",
    "inhibition at 10 µM": 87.1
  },
  {
    "smi": "CC(C)(C)OC(=O)N1CC=C(c2cnc3cnn(S(=O)(=O)c4cnc5ccccn45)c3c2)CC1",
    "readout-unit": "%",
    "inhibition at 10 µM": 62.5
  },
  {
    "smi": "CC(C)(C)OC(=O)N1CCC(n2cc(-c3cnc4cnn(S(=O)(=O)c5cnc6ccc(Cl)nn56)c4c3)cn2)CC1",
    "readout-unit": "%",
    "inhibition at 10 µM": 83.2
  },
  {
    "smi": "CN1CCN(C(=O)c2ccc(-c3cnc4cnn(S(=O)(=O)c5cnc6ccccn56)c4c3)cc2)CC1",
    "readout-unit": "%",
    "inhibition at 10 µM": 73.3
  },
  {
    "smi": "CN(C)C(=O)c1ccc(-c2ccc3ncc(S(=O)(=O)n4ncc5ncc(-c6cnn(C)c6)cc54)n3c2)cc1",
    "readout-unit": "%",
    "inhibition at 10 µM": 76.9
  },
  {
    "smi": "Cn1cc(-c2cnc3cnn(S(=O)(=O)c4c(Cl)nc5sccn45)c3c2)cn1",
    "readout-unit": "%",
    "inhibition at 10 µM": 64
  },
  {
    "smi": "Cn1cc(-c2cnc3cnn(S(=O)(=O)c4cnc5ccc(-c6ccc(C(F)(F)F)cc6)cn45)c3c2)cn1",
    "readout-unit": "%",
    "inhibition at 10 µM": 85.5
  }
]

Kindly note the recorded inhibition at 10 µM for CN(C)C(=O)c1ccc(-c2cnc3cnn(S(=O)(=O)c4cnc5ccccn45)c3c2)cc1 , which is 68.7

Recorded result, Cn1cc(-c2cnc3cnn(S(=O)(=O)c4cnc5ccc(-c6cc(F)c(F)c(F)c6)cn45)c3c2)cn1 , inhibition at 10 µM: 64.5

Memo: CN(C)c1ccc(-c2cnc3cnn(S(=O)(=O)c4cnc5ccccn45)c3c2)cc1 , reported inhibition at 10 µM: 67.5

Form: molecule = O=S(=O)(c1cnc2ccccn12)n1ncc2ncc(-c3cccnc3)cc21 ; inhibition at 10 µM = 71

// inhibition at 10 µM value for Cn1cc(-c2cnc3cnn(S(=O)(=O)c4cccc(C(F)(F)F)c4)c3c2)cn1 : 73.2

Sure, the documented inhibition at 10 µM for CNC(=O)c1ccc(-c2ccc3ncc(S(=O)(=O)n4ncc5ncc(-c6cnn(CCN(C)C)c6)cc54)n3c2)cc1F is 95.4
